Below is a list of entries, each paired with its recorded growth value.
Test system: SK-MEL-28 melanoma
Assay: NCI-60 one-dose screen, 48 h (100 = growth as untreated, 0 = no growth, -100 = all killed)
Conditions: 10 µM unless noted
About 83,000 compounds went through this panel and 20% of them were active in at least one assay; those are over-represented in the sample as a whole. Activity calls are given as the source filed them. The calls were made as follows: active = growth percent below 10; inactive = the rest.

Check out these entries, answers already filled in.
NCCCNc1nc2ccccc2c2c(=O)c3cc(C(F)(F)F)ccc3sc12	81.2% (inactive)
Cn1cc(-c2ccc3cc(-c4ccc(CC(=O)Nc5cc(C(C)(C)C)nn5C)cc4)cnc3c2)cn1	16.7% (inactive)
CN1CCN(CC(=O)N2c3cccc4cccc(c34)N(C(=O)CN3CCN(C)CC3)C2c2cn(-c3ccccc3)nc2-c2cccc([N+](=O)[O-])c2)CC1	-89.5% (active)
C(=N/Nc1ncnc2nc[nH]c12)/c1ccccn1	49.1% (inactive)

We next turn to a different compound, shown below.
Supply measured growth of O=C(/C=C/c1ccc([N+](=O)[O-])o1)NNC(=O)c1cc2ccccc2cc1O in your reply.
-46.1% (active)

* * *

Test system: SN12C renal
Assay: NCI-60 one-dose screen, 48 h
Settings: 10 µM unless noted
About 83,000 compounds went through this panel and 20% of them were active in at least one assay; those are over-represented in the sample as a whole. Activity calls are given as the source filed them. How the source made its calls: active means growth percent below 10; inactive means the rest.
Just give me one of these, please: True (active), False (inactive)

Cc1c(C(=O)N[C@@H](Cc2ccccc2)C(=O)C(=O)NCc2ccc(F)cc2)[nH]c2ccccc2c1=O	False
O=C(CCc1nnc(-c2c(Cl)cccc2Cl)o1)c1nc2ccccc2[nH]1	False
CNCCCNc1nc2ccccc2c2c(=O)c3cc(F)ccc3sc12	False

Give the logged outcome of this assay for the following compound: CCn1cnc2c1c(=O)[nH]c(=O)n2CC1CCC(CNS(=O)(=O)c2ccc(OC3CCOCC3)c(F)c2)CC1 (centres undefined)
False

Give the logged outcome of this assay for the following compound: CCOC(=O)Nc1ccc(-c2nc(-c3cccc(OC)c3)c(-c3ccnc(Br)c3)[nH]2)cc1
False

Give the logged outcome of this assay for the following compound: CCCCn1c(-c2ccc(C(=O)O/N=C(\N)c3ccc(OC)cc3)cc2)nc(-c2ccccc2)c1-c1ccccc1
True

* * *

Test system: CCRF-CEM leukemia
Test: NCI-60 one-dose screen, 48 h
Conditions: 10 µM unless noted
The panel holds about 83,000 compounds, 20% with a hit somewhere; the sample as a whole holds those more often. Calls of active or inactive are those of the source. How the source made its calls: active means growth percent below 10; inactive means the rest.
Just give me one of these, please: active, inactive

CCOC(=O)C1=C(N)Oc2c(sc3c(C)cccc23)C1c1ccc(OC)cc1 (centres undefined)	inactive
c1ccc2cc(C[n+]3ccn(CCCCCCn4cc[n+](Cc5ccc6ccccc6c5)c4)c3)ccc2c1	inactive
COC(=O)Nc1ccc(-c2nc(-c3cccc(OC)c3)c(-c3ccnc(Br)c3)[nH]2)cc1	inactive
Nc1cc2c(cc1Br)-c1cc(Cl)ccc1C2=O	inactive
CN(C(=O)NCc1cccc(F)c1Cl)[C@H](COC(=O)Nc1cc2ccccc2cn1)CC(O)CO (some centres undefined)	inactive
N#Cc1c(-c2ccc(Cl)cc2)nc2c(c(-c3ccccc3)nn2-c2ccccc2)c1-c1ccc(O)cc1	inactive
CN1CCN(c2ccc(-c3cc4c(Nc5ccc(F)c(Cl)c5)ncnn4c3)cc2)CC1	inactive
O=C(CSc1nc2ccccc2[nH]1)Nc1cccc(Cl)c1	inactive
COc1cccc(-c2nc(-c3ccc(NC(=O)c4ccccc4)cc3)[nH]c2-c2ccnc(Br)c2)c1	inactive
CC1Cc2ccccc2N1NC(=O)c1ccc(Cl)c(S(N)(=O)=O)c1 (centres undefined)	inactive

Give the logged outcome of this assay for the following compound: COc1ccc(-c2nc3sc(-c4ccc(Cl)cc4)cn3n2)cc1
inactive

Give the logged outcome of this assay for the following compound: Cc1cccc2c(=O)c3c(sc12)c(NCc1ccccc1)nc1ccccc13
inactive

Give the logged outcome of this assay for the following compound: O=C(/C=C/c1cccc2ccccc12)c1ccc(NC(=O)c2ccccc2CN2C(=O)c3ccccc3C2=O)cc1
inactive

Give the logged outcome of this assay for the following compound: N#CC1=C(N)Oc2c(sc3c(Br)cccc23)C1c1ccc(Br)cc1 (centres undefined)
inactive

Give the logged outcome of this assay for the following compound: CC1(C)C2CC1C1(/C=N/NC(N)=S)C(C2)C(C#N)(C#N)C1(C#N)C#N (centres undefined)
inactive

Give the logged outcome of this assay for the following compound: COC(=O)c1ccc2[nH]c(O)c(C(=Nc3ccc(N(C)C(=O)CN4CCN(C)CC4)cc3)c3ccccc3)c2c1
inactive

Give the logged outcome of this assay for the following compound: Fc1cc(-c2nnc3n2NC(=Nc2ccc(Cl)cc2)CS3)c(Cl)cc1Cl
inactive

Give the logged outcome of this assay for the following compound: COc1cc(Nc2nc(NCCN)nc3cc[nH]c(=O)c23)cc(OC)c1
inactive

Give the logged outcome of this assay for the following compound: O=C1c2ccccc2NC(n2sc3ccccc3c2=O)N1c1ccccc1 (centres undefined)
inactive

* * *

Test system: SN12C renal
Assay: NCI-60 one-dose screen, 48 h (100 = growth as untreated, 0 = no growth, -100 = all killed)
Conditions: 10 µM unless noted
About 83,000 compounds went through this panel and 20% of them were active in at least one assay; those are over-represented in the sample as a whole.
Below is a list of entries, each paired with its recorded growth value.
Expressed in %, but write only the number.

Check out these entries, answers already filled in.
Cc1c(C(=O)NCCCc2ccccc2)sc2ncc(-c3ccc(Br)cc3)n12	98.7
COc1ccn2c(C(C)=O)cc(C(=O)c3ccc4c(c3)Sc3ccccc3N4)c2c1	25.3
Cc1ccc2nc(NC(=O)CSc3nc(Cl)c(C#N)c(-c4ccccc4)n3)sc2c1	98.2
COc1ccc(-c2ncnc3c2ncn3CC#CCCl)cc1	46.3
CCCCNc1nc(NN2C(=O)c3cccc4cccc(c34)C2=O)nc(-n2cnc3ccccc32)n1	90.5

Identify measured growth obtained with SN12C renal for COc1ccc(-c2nc(NCCO)[nH]c(=O)c2C#N)cc1 .
95.9

Identify measured growth obtained with SN12C renal for COc1ccccc1/C=C1\Oc2cc(OCCN3CCC(Cc4ccccc4)CC3)ccc2C1=O .
88.8

* * *

Test system: MOLT-4 leukemia
Assay: NCI-60 one-dose screen, 48 h (100 = growth as untreated, 0 = no growth, -100 = all killed)
Conditions: 10 µM unless noted
Compounds without any hit were thinned out: in the full panel of roughly 83,000, 20% have a hit. Activity calls are given as the source filed them. Rule for the calls: active = growth percent below 10; inactive = the rest.
attribute measured: growth

Check out these entries, answers already filled in.
COc1cccc2c(=O)c3c(sc12)c(N1CCNCC1)nc1ccccc13	-13.3% (active)
CN(C)CCS(=O)(=O)Nc1cc(-c2ccc3ncc(C#N)c(Nc4ccc(F)c(Cl)c4)c3c2)cnc1Cl	-25.9% (active)
COC1=C(C)C(=O)c2c(c(CCCl)c3n2CCC3O)C1=O (stereo not given)	74.6% (inactive)

Supply measured growth of COc1cc(C(=O)c2cnc(-c3cccc4[nH]ccc34)[nH]2)cc(OC)c1OC in your reply.
14.2% (inactive)

Supply measured growth of O=C(CCCCCCSc1nc(-c2ccccc2)cc(-c2ccccc2)n1)NO in your reply.
5.23% (active)

Supply measured growth of Cc1ccccc1C(=O)NN in your reply.
92.3% (inactive)

Supply measured growth of COc1ccc(CN2c3ccccc3CCc3ccccc32)cc1F in your reply.
16.2% (inactive)

* * *

Tested on: OVCAR-3 ovarian
Experiment: NCI-60 one-dose screen, 48 h (100 = growth as untreated, 0 = no growth, -100 = all killed)
Conditions: 10 µM unless noted
Protocol: Growth inhibition of the OVCAR-3 human tumor cell line is measured as a screen for anti-cancer activity. Cells are grown in 96 well plates and exposed to the test compound for 48 hours. Compounds are tested at a single concentration, which is 10^-5 M for most compounds. The reported endpoint is percent growth (GI% or GIPRCNT), where numbers from 0 - 100% represent growth inhibition, and numbers from -100% - 0 represent cell death. For example, a value of 40 represents 60% growth inhibition. […]
Compounds without any hit were thinned out: in the full panel of roughly 83,000, 20% have a hit.
Consider the cut-off 50%. If the recorded growth is strictly smaller, the label is 1.0; if not, the label is 0.0.

c1cc(-c2nnc(SSc3ncnc4nc[nH]c34)o2)ccn1	1.0

Strictly below 50%: is that where growth of C=C1C(=O)O[C@H]2[C@H]1CC/C(COC(=O)NCCOCCOCC(=O)Nc1ccc(OC)c(C(N)=O)c1O)=C\CC[C@@]1(C)O[C@@H]21 sits?
1.0

Strictly below 50%: is that where growth of CCOc1ccc2nc(SCc3nc4n(n3)S(=O)(=O)c3ccccc3N4C)sc2c1 sits?
1.0

Strictly below 50%: is that where growth of O=C(N/N=C/c1c(Cl)cccc1Cl)c1ccc(C(F)(F)F)nc1Nc1cccc(C(F)(F)F)c1 sits?
1.0

Strictly below 50%: is that where growth of Cc1ccc2nc(NC(=O)CSc3nc(Cl)c(C#N)c(-c4ccccc4)n3)sc2c1 sits?
0.0

Strictly below 50%: is that where growth of O=C(CCN1C(=O)/C(=C/c2ccc(O)cc2)SC1=S)Nc1ccc(Cl)cc1 sits?
0.0

Strictly below 50%: is that where growth of O=C(Nc1ccc(F)cc1F)c1cc(F)ccc1O sits?
1.0

Strictly below 50%: is that where growth of COc1ccc(-c2ncnc3c2ncn3CC#CCCl)cc1 sits?
0.0

Strictly below 50%: is that where growth of O=C1c2cccc3cccc(c23)C(=O)N1Nc1nc(NC2CCCCC2)nc(N2CCOCC2)n1 sits?
0.0

Strictly below 50%: is that where growth of Cc1nc2cnc(N)c(C#Cc3cncc(C(=O)Nc4ccc(CN5CCN(C)CC5)c(C(F)(F)F)c4)c3)c2nc1C sits?
1.0

Strictly below 50%: is that where growth of COc1ccc(-c2conc2-c2ccccc2)cc1 sits?
1.0

Strictly below 50%: is that where growth of Cc1ccc(/C=C2\Oc3ccc(O)c(O)c3C2=O)cc1 sits?
1.0

Strictly below 50%: is that where growth of N#CC1=C(N)Oc2c(sc3c(Br)cccc23)C1c1ccc([N+](=O)[O-])cc1 (configuration not stated) sits?
1.0

Strictly below 50%: is that where growth of CCCCOc1ccc(/C=N/NC(N)=S)cc1 sits?
0.0

Strictly below 50%: is that where growth of CCC(=O)Nc1ccc(-c2nc(-c3cccc(OC)c3)c(-c3ccnc(Br)c3)[nH]2)cc1 sits?
0.0

Strictly below 50%: is that where growth of c1ccc(-c2nc3sc(-c4ccccc4)cn3n2)cc1 sits?
0.0

Strictly below 50%: is that where growth of COc1ccc2c(c1)C(C)Cc1c(ncnc1-n1c(C)nc3ccccc31)N2C (configuration not stated) sits?
1.0

Strictly below 50%: is that where growth of COc1cc(C(=O)c2cnc(-c3c[nH]c4cccc(C)c34)[nH]2)cc(OC)c1OC sits?
1.0

Strictly below 50%: is that where growth of COc1ccc(OC)c(/C=C/C(=O)N/N=C/c2ccc(Cl)cc2)c1 sits?
1.0
